Reference source for all entries: the supplement of paper PMC6805474

- Test system: Schistosoma mansoni schistosomula (NMRI)
- METHOD: phenotypic severity score (0-4); higher = more antischistosomal effect, active = 2 or more
- EXPERIMENTAL_CONDITIONS: 48 h; 10 µM
READOUT_LABEL: phenotypic severity score

Answered cases to consult:
Cc1nn(Cc2ccccc2)c(Cl)c1C(=O)NC1CCCCCC1 = 0 (inactive)
CCc1nn(C)c(C(=O)NCc2ccc(Oc3ccc(C)cc3)cc2)c1Cl = 1 (inactive)
Cc1cc(C2=NOC(c3cc(Cl)c(F)c(Cl)c3)(C(F)(F)F)C2)ccc1C(=O)NCc1ccc2c(c1)C(C)(C)OB2O (stereo unspecified) = 0 (inactive)
CO[C@@H]1CN(c2ccc(C#CC3(O)CN4CCC3CC4)c(Cc3ccccc3)n2)C[C@H]1O (stereo partly specified) = 0 (inactive)
O=C1O[C@@H](CO)CN1c1cc(F)c(C2=CCN(Cc3ccccc3)CC2)c(F)c1 = 0 (inactive)

q: Need phenotypic severity score, item Cc1nn(C)c(C)c1NS(=O)(=O)c1c(Cl)cc(-c2ccnc(N3CCNCC3)c2)cc1Cl
a: 0 (inactive)

* * *

- Test system: Schistosoma mansoni schistosomula (Liberian)
- METHOD: drug effect (1 - score/DMSO control score) (fraction); higher = more antischistosomal effect, active = 0.5 or more; extreme values may be limits of the assay
- EXPERIMENTAL_CONDITIONS: 48 h; 10 µM
Output constraint: value belongs to Yes = active, No = inactive

CO[C@@H]1CN(c2ccc(C#CC3(O)CN4CCC3CC4)c(Cc3ccccc3)n2)C[C@H]1O (some centres not stated) = No
Cc1nn(Cc2ccccc2)c(Cl)c1C(=O)NC1CCCCCC1 = No

q: Assay result, entry CC(C)(C)C(O)C(Oc1ccc(-c2ccccc2)cc1)n1cncn1 (configuration not stated) — outcome?
a: No

q: Assay result, entry CO/N=C(\C(=O)OC)c1ccccc1CO/N=C(\C)c1cccc(C(F)(F)F)c1 — outcome?
a: No

q: Assay result, entry Cc1cc(C2=NOC(c3cc(Cl)c(F)c(Cl)c3)(C(F)(F)F)C2)ccc1C(=O)NCc1ccc2c(c1)C(C)(C)OB2O (configuration not stated) — outcome?
a: No

q: Assay result, entry CC1(C)OB(O)c2ccc(C3=NOC(c4cc(Cl)c(F)c(Cl)c4)(C(F)(F)F)C3)cc21 (configuration not stated) — outcome?
a: Yes

q: Assay result, entry O=C1O[C@@H](CO)CN1c1cc(F)c(C2=CCN(Cc3ccccc3)CC2)c(F)c1 — outcome?
a: No

* * *

- System: Schistosoma mansoni schistosomula (NMRI)
- METHOD: phenotypic severity score (0-4); higher = more antischistosomal effect, active = 2 or more
- EXPERIMENTAL_CONDITIONS: 24 h; 10 µM
READOUT_LABEL: phenotypic severity score
Just the number, please.

Answered cases to consult:
CC1COC(Cn2cncn2)(c2ccc(Oc3ccc(Cl)cc3)cc2Cl)O1 (stereo not given) = 2
Cc1nn(C)c(C)c1NS(=O)(=O)c1c(Cl)cc(-c2ccnc(N3CCNCC3)c2)cc1Cl = 0
CC(C)(C)C(O)C(Oc1ccc(-c2ccccc2)cc1)n1cncn1 (stereo not given) = 1
CO/N=C(\C(=O)OC)c1ccccc1CO/N=C(\C)c1cccc(C(F)(F)F)c1 = 1
Cc1nn(Cc2ccccc2)c(Cl)c1C(=O)NC1CCCCCC1 = 2
Nc1c2c(nc3sc4c(c13)CCCC4)CCCC2 = 4

q: Need phenotypic severity score, item CO/C=C(/C(=O)OC)c1ccccc1Oc1cc(Oc2ccccc2C#N)ncn1
a: 0

q: Need phenotypic severity score, item Cc1cc(C2=NOC(c3cc(Cl)c(F)c(Cl)c3)(C(F)(F)F)C2)ccc1C(=O)NCc1ccc2c(c1)C(C)(C)OB2O (stereo not given)
a: 0

q: Need phenotypic severity score, item O=C1O[C@@H](COc2ccon2)CN1c1cc(F)c(C2=CCN(Cc3ccccc3)CC2)c(F)c1
a: 0

q: Need phenotypic severity score, item O=C1O[C@@H](CO)CN1c1cc(F)c(C2=CCN(Cc3ccccc3)CC2)c(F)c1
a: 0
